# TARGET: BaF3_HER2YVMA cells (Homo sapiens, UniProt P04626, DUP772-775, cells depend on it)
# Sequence (P04626 with tags, fused parts or gaps DUP772-775): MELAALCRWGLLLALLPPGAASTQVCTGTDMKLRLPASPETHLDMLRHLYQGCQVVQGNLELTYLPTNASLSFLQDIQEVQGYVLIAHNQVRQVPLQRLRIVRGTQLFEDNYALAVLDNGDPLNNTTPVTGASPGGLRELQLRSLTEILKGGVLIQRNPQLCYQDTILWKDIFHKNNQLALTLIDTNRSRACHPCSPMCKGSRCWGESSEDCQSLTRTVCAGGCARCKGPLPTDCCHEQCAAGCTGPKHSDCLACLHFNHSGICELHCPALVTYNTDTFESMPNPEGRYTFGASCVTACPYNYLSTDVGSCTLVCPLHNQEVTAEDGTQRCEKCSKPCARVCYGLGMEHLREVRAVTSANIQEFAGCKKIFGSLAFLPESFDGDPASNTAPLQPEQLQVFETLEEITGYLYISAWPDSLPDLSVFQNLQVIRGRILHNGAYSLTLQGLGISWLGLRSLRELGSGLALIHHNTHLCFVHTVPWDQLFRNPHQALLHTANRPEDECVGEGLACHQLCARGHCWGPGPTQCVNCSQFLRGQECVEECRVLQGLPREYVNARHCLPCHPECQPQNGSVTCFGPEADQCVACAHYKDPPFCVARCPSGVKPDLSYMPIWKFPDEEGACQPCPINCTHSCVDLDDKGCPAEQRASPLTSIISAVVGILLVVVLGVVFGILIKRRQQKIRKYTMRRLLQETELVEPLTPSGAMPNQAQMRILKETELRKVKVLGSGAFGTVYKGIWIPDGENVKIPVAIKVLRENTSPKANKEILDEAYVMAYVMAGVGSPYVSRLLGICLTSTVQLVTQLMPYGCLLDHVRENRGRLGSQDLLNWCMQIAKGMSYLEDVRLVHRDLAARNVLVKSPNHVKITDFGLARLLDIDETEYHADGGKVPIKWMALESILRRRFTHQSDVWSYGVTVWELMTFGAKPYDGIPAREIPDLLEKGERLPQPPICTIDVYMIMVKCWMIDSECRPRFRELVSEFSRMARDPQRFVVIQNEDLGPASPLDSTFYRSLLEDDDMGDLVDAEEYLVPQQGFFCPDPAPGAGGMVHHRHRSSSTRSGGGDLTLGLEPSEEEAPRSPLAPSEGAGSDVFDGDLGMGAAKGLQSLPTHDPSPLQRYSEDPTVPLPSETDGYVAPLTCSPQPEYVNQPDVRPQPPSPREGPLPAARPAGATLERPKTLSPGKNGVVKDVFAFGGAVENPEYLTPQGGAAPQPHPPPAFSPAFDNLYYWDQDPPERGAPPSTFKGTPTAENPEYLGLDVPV
# ASSAY_SUMMARY: Cell growth inhibition assay (CellTiterGlo), BaF3_HER2YVMA
# Type: cell-based
# CONDITION_NOTES: 3-day treatment, CellTiterGlo, read-out: Cell growth inhibition activity, HER2 - YVMA
OUTCOME_MEASURE: GI50

| MOLECULE | OUTCOME_MEASURE | MEASURED_VALUE |
| --- | --- | --- |
| C=CC(=O)NC1CCN(c2ccn3ncnc(Nc4ccc(Oc5ccn6ncnc6c5)c(C)c4)c23)CC1 | GI50 | 200 to 500 nM |
| Cc1cc(Nc2ncnn3ccc(C4(F)CCN(C(=O)/C=C/CN(C)C)CC4)c23)ccc1Oc1ccn2ncnc2c1 | GI50 | 1500 to 5000 nM |
| Cc1cc(Nc2ncnn3ccc(C4CCN(C(=O)/C=C/CN)CC4)c23)ccc1Oc1ccn2ncnc2c1 | GI50 | 1500 to 5000 nM |
| C=CC(=O)N1CCC2CCC(C1)N2c1ccn2ncnc(Nc3ccc(Oc4ccn5ncnc5c4)c(C)c3)c12 (stereo not shown) | GI50 | 500 to 1500 nM |

* * *

Here we list compounds with their recorded pIC50 when tested on wtEGFR (Homo sapiens).
Sequence (P00533 25-1210): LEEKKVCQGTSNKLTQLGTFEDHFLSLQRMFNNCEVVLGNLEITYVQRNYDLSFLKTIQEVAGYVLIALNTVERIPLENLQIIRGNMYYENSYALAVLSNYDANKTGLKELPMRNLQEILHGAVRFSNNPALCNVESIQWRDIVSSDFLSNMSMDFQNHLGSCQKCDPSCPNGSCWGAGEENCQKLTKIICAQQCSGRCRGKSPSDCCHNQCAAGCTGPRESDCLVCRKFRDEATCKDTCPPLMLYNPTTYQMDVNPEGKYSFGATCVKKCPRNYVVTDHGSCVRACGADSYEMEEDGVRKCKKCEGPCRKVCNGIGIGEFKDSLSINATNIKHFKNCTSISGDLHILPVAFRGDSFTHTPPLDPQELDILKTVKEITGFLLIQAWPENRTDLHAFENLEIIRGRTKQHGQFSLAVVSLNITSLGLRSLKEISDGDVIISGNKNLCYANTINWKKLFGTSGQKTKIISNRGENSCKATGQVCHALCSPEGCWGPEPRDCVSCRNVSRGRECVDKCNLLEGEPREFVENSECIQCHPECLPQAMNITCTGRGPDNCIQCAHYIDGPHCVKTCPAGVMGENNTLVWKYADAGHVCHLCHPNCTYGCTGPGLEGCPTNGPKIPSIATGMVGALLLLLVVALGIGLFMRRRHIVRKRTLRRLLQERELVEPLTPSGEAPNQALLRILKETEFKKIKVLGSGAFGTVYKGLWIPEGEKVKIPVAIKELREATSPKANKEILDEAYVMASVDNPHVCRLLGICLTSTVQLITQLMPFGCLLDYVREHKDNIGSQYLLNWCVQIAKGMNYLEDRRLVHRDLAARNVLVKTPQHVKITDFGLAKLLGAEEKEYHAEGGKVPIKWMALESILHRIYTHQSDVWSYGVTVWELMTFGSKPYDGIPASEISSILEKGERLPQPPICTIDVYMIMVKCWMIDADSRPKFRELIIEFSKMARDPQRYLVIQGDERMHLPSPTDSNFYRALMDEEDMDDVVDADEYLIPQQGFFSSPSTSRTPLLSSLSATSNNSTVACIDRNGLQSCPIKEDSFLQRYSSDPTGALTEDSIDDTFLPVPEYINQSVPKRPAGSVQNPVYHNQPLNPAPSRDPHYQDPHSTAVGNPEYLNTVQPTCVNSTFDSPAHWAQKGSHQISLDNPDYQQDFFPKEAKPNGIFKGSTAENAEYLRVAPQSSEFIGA
pIC50: −log10 of the molar value.

| COMPOUND | pIC50 |
| --- | --- |
| Cc1cc(Nc2ncnn3ccc(C4CCCN(C(=O)/C=C/CN(C)C)C4)c23)ccc1Oc1ccn2ncnc2c1 (centres unmarked) [Example 96] | 5.82 to 6.30 |
| C=CC(=O)N1CCC(c2ccn3ncnc(Nc4ccc(Oc5ccn6ncnc6c5)c(C)c4)c23)C1 (centres unmarked) | 5.82 to 6.30 |
| Cc1cc(Nc2ncnn3ccc(C4CCCN(C(=O)/C=C/CN(C)C)CC4)c23)ccc1Oc1ccn2ncnc2c1 (centres unmarked) [Example 93] | 6.30 to 6.70 |
| Cc1cc(Nc2ncnn3ccc(C4CCCN(C(=O)/C=C/CN(C)C)C4)c23)ccc1Oc1ccn2ncnc2c1 (single isomer, unassigned) [Example 108] | 5.30 to 5.82 |
| Cc1cc(Nc2ncnn3ccc(N4CC5(CCN(C(=O)/C=C/CN(C)C)C5)C4)c23)ccc1Oc1ccn2ncnc2c1 | 5.82 to 6.30 |
| Cc1cc(Nc2ncnn3ccc(N4CCN(C(=O)/C=C/CN(C)C)CC4)c23)ccc1Oc1ccn2ncnc2c1 | 5.82 to 6.30 |
| Cc1cc(Nc2ncnn3ccc(C4CCCN(C(=O)/C=C/CN(C)C)CC4)c23)ccc1Oc1ccn2ncnc2c1 (single isomer, unassigned) [Example 110] | 6.30 to 6.70 |
| Cc1cc(Nc2ncnn3ccc(C4CCN(C(=O)CCCN(C)C)CC4)c23)ccc1Oc1ccn2ncnc2c1 | 5.82 to 6.30 |
| Cc1cc(Nc2ncnn3ccc(C4CN(C(=O)/C=C/CN5CC(F)(F)C5)C4)c23)ccc1Oc1ccn2ncnc2c1 | 5.82 to 6.30 |
| Cc1cc(Nc2ncnn3ccc(C(=O)NCCCN(C)C)c23)ccc1Oc1ccn2ncnc2c1 | 5.82 to 6.30 |
| Cc1cc(Nc2ncnn3ccc(C4CN(C(=O)/C=C/CN5CCC5)C4)c23)ccc1Oc1ccn2ncnc2c1 | 5.30 to 5.82 |
| C=CC(=O)N1CC2(C1)CN(c1ccn3ncnc(Nc4ccc(Oc5ccn6ncnc6c5)c(C)c4)c13)C2 | 5.30 to 5.82 |
| Cc1cc(Nc2ncnn3ccc(C4CN(C(=O)/C=C/CN)C4)c23)ccc1Oc1ccn2ncnc2c1 | 6.30 to 6.70 |
| Cc1cc(Nc2ncnn3ccc(-c4cnn(CCNC(=O)/C=C/CN(C)C)c4)c23)ccc1Oc1ccn2ncnc2c1 | 5.30 to 5.82 |

* * *

# TARGET: BaF3_HER2WT cells (Homo sapiens)
# Sequence (P04626 whole entry, change not shown): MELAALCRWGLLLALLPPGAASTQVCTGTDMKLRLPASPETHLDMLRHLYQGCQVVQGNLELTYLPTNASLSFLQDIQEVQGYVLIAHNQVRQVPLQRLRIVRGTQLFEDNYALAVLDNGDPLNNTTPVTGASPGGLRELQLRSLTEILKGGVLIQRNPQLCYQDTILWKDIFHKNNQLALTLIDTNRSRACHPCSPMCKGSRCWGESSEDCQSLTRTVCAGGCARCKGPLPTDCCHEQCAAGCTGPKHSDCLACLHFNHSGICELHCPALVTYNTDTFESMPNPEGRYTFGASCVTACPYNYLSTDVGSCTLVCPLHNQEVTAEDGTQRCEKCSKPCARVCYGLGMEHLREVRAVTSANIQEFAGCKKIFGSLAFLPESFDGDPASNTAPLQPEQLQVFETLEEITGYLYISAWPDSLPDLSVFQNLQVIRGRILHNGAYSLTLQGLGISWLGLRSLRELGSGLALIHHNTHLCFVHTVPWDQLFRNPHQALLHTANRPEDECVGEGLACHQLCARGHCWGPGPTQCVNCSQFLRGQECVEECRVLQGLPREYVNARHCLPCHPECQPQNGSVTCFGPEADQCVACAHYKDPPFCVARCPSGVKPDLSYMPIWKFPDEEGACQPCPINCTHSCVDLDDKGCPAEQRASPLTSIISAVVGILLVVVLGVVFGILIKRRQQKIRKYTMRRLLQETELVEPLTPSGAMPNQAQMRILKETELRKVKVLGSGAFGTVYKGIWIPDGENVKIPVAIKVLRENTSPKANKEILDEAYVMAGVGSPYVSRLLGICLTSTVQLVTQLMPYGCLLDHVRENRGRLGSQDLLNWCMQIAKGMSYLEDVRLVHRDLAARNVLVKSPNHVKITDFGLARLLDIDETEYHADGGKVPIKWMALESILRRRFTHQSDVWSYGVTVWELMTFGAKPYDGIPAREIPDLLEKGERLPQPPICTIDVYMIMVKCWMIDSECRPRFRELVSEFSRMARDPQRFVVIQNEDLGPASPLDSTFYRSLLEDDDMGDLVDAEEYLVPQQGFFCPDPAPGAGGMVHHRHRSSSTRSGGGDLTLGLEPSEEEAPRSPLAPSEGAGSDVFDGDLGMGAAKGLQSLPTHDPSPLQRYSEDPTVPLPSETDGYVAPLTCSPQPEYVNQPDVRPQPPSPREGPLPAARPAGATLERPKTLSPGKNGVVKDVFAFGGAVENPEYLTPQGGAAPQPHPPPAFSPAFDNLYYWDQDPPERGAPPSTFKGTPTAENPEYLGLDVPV
# ASSAY_SUMMARY: Cell growth inhibition assay (CellTiterGlo), BaF3_HER2WT
# Format: cell-based
# CONDITION_NOTES: 3-day treatment, CellTiterGlo, read-out: Cell growth inhibition activity, HER2 WT
The following compounds are listed with their measured GI50 values.
OUTCOME_MEASURE: GI50

| COMPOUND | TARGET | OUTCOME_MEASURE | MEASURED_VALUE |
| --- | --- | --- | --- |
| C=C(C(=O)O)C(=O)N1CCC(c2ccn3ncnc(Nc4ccc(Oc5ccn6ncnc6c5)c(C)c4)c23)CC1 [Example 20] | BaF3_HER2WT cells (Homo sapiens) | GI50 | 1.5 to 5 µM |
| Cc1cc(Nc2ncnn3ccc(N4CCN(C(=O)C(F)Cl)CC(F)(F)C4)c23)ccc1Oc1ccn2ncnc2c1 (centres unmarked) [Example 63] | BaF3_HER2WT cells (Homo sapiens) | GI50 | 0.5 to 1.5 µM |
| Cc1cc(Nc2ncnn3ccc(C4CC5(C4)CN(C(=O)/C=C/CN(C)C)C5)c23)ccc1Oc1ccn2ncnc2c1 [Example 95] | BaF3_HER2WT cells (Homo sapiens) | GI50 | 0.2 to 0.5 µM |
| Cc1cc(Nc2ncnn3ccc(C(=O)NCCCN(C)C)c23)ccc1Oc1ccn2ncnc2c1 [Example 178] | BaF3_HER2WT cells (Homo sapiens) | GI50 | 0.2 to 0.5 µM |
| C=CC(=O)N1CC2(C1)CN(c1ccn3ncnc(Nc4cnc(Oc5ccn6ncnc6c5)c(Cl)c4)c13)C2 [Example 15] | BaF3_HER2WT cells (Homo sapiens) | GI50 | 1.5 to 5 µM |
| C=C(F)C(=O)NC1CN(c2ccn3ncnc(Nc4ccc(Oc5ccn6ncnc6c5)c(C)c4)c23)C1 [Example 18] | BaF3_HER2WT cells (Homo sapiens) | GI50 | 0.2 to 0.5 µM |
| C=CC(=O)N1C[C@H]2C[C@@H]1C[C@@H]2c1ccn2ncnc(Nc3ccc(Oc4ccn5ncnc5c4)c(C)c3)c12 [Example 141] | BaF3_HER2WT cells (Homo sapiens) | GI50 | 0.2 to 0.5 µM |
| CO[C@H]1CN(C/C=C/C(=O)N2CCC(c3ccn4ncnc(Nc5ccc(Oc6ccn7ncnc7c6)c(C)c5)c34)CC2)C[C@H]1OC [Example 169] | BaF3_HER2WT cells (Homo sapiens) | GI50 | < 0.2 µM |
| C=C(CN(C)C)C(=O)N1CC(c2ccn3ncnc(Nc4ccc(Oc5ccc6c(c5)ncn6C)c(C)c4)c23)C1 [Example 67] | BaF3_HER2WT cells (Homo sapiens) | GI50 | < 0.2 µM |
| Cc1cc(Nc2ncnn3ccc(C4(O)CCN(C(=O)/C=C/CN(C)C)CC4)c23)ccc1Oc1ccn2ncnc2c1 [Example 50] | BaF3_HER2WT cells (Homo sapiens) | GI50 | 0.2 to 0.5 µM |
| Cc1cc(Nc2ncnn3ccc(-c4cnn(CCNC(=O)/C=C/CN(C)C)c4)c23)ccc1Oc1ccn2ncnc2c1 [Example 103] | BaF3_HER2WT cells (Homo sapiens) | GI50 | 1.5 to 5 µM |
| C=CC(=O)NC1CCN(c2ccn3ncnc(Nc4ccc(Oc5ccn6ncnc6c5)c(C)c4)c23)CC1 [Example 78] | BaF3_HER2WT cells (Homo sapiens) | GI50 | < 0.2 µM |
| Cc1cc(Nc2ncnn3ccc(C4CCN(C(=O)/C=C/CN5CCCCC5)CC4)c23)ccc1Oc1ccn2ncnc2c1 [Example 57] | BaF3_HER2WT cells (Homo sapiens) | GI50 | < 0.2 µM |
| Cc1cc(Nc2ncnn3ccc(N4CC5CCC(C4)N5C(=O)/C=C/CN(C)C)c23)ccc1Oc1ccn2ncnc2c1 [Example 47] | BaF3_HER2WT cells (Homo sapiens) | GI50 | < 0.2 µM |

* * *

# TARGET: BaF3_HER2WT cells (Homo sapiens)
# ASSAY_SUMMARY: Cell growth inhibition assay (CellTiterGlo), BaF3_HER2WT
# Type: cell-based
# CONDITION_NOTES: 3-day treatment, CellTiterGlo, read-out: Cell growth inhibition activity, HER2 WT
Each entry below carries its reported GI50.

| COMPOUND | TARGET | GI50 |
| --- | --- | --- |
| Cc1cc(Nc2ccn3ncnc(C4CC5CCC(C4)N5C(=O)/C=C/CN(C)C)c23)ccc1Oc1ccn2cnnc2c1 (stereo not shown) [Example 33, acetate] | BaF3_HER2WT cells (Homo sapiens) | < 200 nM |
| Cc1cc(Nc2ncnn3ccc(C4CCN(C(=O)CCCN(C)C)CC4)c23)ccc1Oc1ccn2ncnc2c1 | BaF3_HER2WT cells (Homo sapiens) | 500 to 1500 nM |
| Cc1cc(Nc2ncnn3ccc(C4CN(C(=O)/C=C/C56CCCN5CCC6)C4)c23)ccc1Oc1ccn2ncnc2c1 | BaF3_HER2WT cells (Homo sapiens) | < 200 nM |
| COC1CN(C/C=C/C(=O)N2CC(c3ccn4ncnc(Nc5ccc(Oc6ccn7ncnc7c6)c(C)c5)c34)C2)C1 | BaF3_HER2WT cells (Homo sapiens) | < 200 nM |
| Cc1cc(Nc2ncnn3ccc(C4CCN(C(=O)/C=C/CN5CCC(F)C5)CC4)c23)ccc1Oc1ccn2ncnc2c1 (stereo not shown) | BaF3_HER2WT cells (Homo sapiens) | < 200 nM |
| Cc1cc(Nc2ncnn3ccc(N4CC(NC(=O)/C=C/CN5CCOCC5)C4)c23)ccc1Oc1ccn2ncnc2c1 | BaF3_HER2WT cells (Homo sapiens) | 200 to 500 nM |
| Cc1cc(Nc2ncnn3ccc(C4CCN(C(=O)/C=C/CN(C)C)C4)c23)ccc1Oc1ccn2ncnc2c1 (stereo not shown) | BaF3_HER2WT cells (Homo sapiens) | < 200 nM |
